Target: BRAF G469A (Homo sapiens, UniProt P15056, G469A)
Construct: Horizon Discovery (HCT-116 BRAF−/− cells); host or cells: HCT-116 BRAF−/− cells, clone 34, lentiviral transduction
Sequence (P15056 whole entry G469A): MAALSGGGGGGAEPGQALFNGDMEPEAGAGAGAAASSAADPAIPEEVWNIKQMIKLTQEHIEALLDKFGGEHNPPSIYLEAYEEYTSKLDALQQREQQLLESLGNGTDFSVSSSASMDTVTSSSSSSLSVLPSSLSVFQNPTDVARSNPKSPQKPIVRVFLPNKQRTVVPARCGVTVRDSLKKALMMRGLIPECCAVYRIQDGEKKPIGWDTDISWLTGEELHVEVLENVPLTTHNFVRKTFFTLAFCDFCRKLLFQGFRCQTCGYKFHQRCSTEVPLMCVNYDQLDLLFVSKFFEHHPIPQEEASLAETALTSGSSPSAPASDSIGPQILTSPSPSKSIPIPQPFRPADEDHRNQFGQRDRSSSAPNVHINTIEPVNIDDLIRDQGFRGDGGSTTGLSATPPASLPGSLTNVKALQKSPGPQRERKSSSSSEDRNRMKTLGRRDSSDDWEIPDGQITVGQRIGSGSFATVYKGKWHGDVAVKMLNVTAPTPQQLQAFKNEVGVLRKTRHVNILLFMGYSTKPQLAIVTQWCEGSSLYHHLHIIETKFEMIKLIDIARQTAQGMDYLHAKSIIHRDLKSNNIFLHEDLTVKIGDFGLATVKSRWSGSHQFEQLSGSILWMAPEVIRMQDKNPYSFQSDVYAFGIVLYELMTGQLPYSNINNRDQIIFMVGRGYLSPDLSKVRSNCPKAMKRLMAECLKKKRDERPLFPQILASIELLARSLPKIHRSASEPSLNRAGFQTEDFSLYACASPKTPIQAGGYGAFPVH
Assay: BRAF HiBiT degradation assay, C-terminal HiBiT-tagged BRAF G469A overexpressed in HCT-116 BRAF−/− cells (clone 34), Nano-Glo HiBiT Lytic assay
Assay type: cell-based
Conditions: BRAF G469A (Class 2), HCT-116 BRAF−/− cells; DC50 at 50% degradation
test.readout: DC50

Examples from the recorded data:
molecule	subject.of.test	reading
CCN(C)S(=O)(=O)Nc1cc(Cl)cc(-c2cn(-c3ccc(N4CCN(CC5CCN(c6ccc([C@H]7CCC(=O)NC7=O)cn6)CC5)CC4)cc3)nc2-c2ccncc2)c1F	BRAF G469A (Homo sapiens, UniProt P15056, G469A)	0.01 to 0.05 µM
O=C1CC[C@H](c2ccc(N3CCC(CN4CCN(c5ccc(-n6cc(-c7cc(F)cc(NS(=O)(=O)N8CC[C@@H](F)C8)c7F)c(-c7ccncc7)n6)nc5)CC4)CC3)nc2)C(=O)N1	BRAF G469A (Homo sapiens, UniProt P15056, G469A)	< 0.01 µM
O=C1CCC(c2cc(F)c(N3CCC(CN4CCN(c5ccc(-n6cc(-c7cc(Cl)cc(NS(=O)(=O)N8CCCC8)c7F)c(-c7ccncc7)n6)cc5)CC4)CC3)cc2F)C(=O)N1 (racemic)	BRAF G469A (Homo sapiens, UniProt P15056, G469A)	0.05 to 0.5 µM
O=C1CCN(c2ccc(N3CCC(CN4CCN(c5ccc(-n6cc(-c7cc(Cl)cc(NS(=O)(=O)N8CC[C@@H](F)C8)c7F)c(-c7ccncc7)n6)cc5)CC4)CC3)cc2)C(=O)N1	BRAF G469A (Homo sapiens, UniProt P15056, G469A)	0.05 to 0.5 µM

Let's switch to this molecule now.
Which DC50 reading was recorded for the molecule C[C@@H]1CN(c2ccc(-n3cc(-c4cc(Cl)cc(NS(=O)(=O)N5CCCC5)c4F)c(-c4ccncc4)n3)nc2)CCN1CC1CCN(c2ccc(C3CCC(=O)NC3=O)cn2)CC1 (mixture of isomers) ? < 0.01 µM
